# MIC per entry
Tested on: Pseudomonas aeruginosa
assay.text: MIC against clinical isolates
Format: cell-based
condition.label: clinical isolate GN 2987; unit assumed

# compound, MIC
records = [
    ("CC1(C)S[C@@H]2[C@H](NC(=O)[C@H](N)c3ccccc3)C(=O)N2[C@H]1C(=O)O [Sodium Ampicillin, SodiumAmpicillin, reference compound]", "> 200 µg/mL"),
    ("Cc1nnc(SCC2=C(C(=O)O)N3C(=O)[C@@H](NC(=O)Cn4cnnn4)[C@H]3SC2)s1 [Sodium Cephazolin, SodiumCephazolin, reference compound]", "> 200 µg/mL"),
    ("CC(=O)OCC1=C(C(=O)O)N2C(=O)[C@@H](NC(=O)[C@H](N)c3ccccc3)[C@H]2SC1 [Sodium Cephaloglycin, SodiumCephaloglycin, reference compound]", "> 200 µg/mL"),
]

----------
Tested on: Proteus vulgaris 3027
assay.text: MIC against standard strain, plate method
Assay type: cell-based
condition.label: Proteus vulgaris 3027, standard strain; unit assumed
measured.endpoint: MIC

# compound, measured.endpoint, test.result
data = [
    ("CC1(C)S[C@@H]2[C@H](NC(=O)[C@H](NC(=O)N3CCN(S(C)(=O)=O)CC3=O)c3ccccc3)C(=O)N2[C@H]1C(=O)O [compound 5]", "MIC", "< 1.57 µg/mL"),
    ("CCCCCCCCCCCCN1CCN(C(=O)N[C@@H](C(=O)N[C@@H]2C(=O)N3[C@@H]2SC(C)(C)[C@@H]3C(=O)O)c2ccccc2)CC1=O [compound 31]", "MIC", "< 1.57 µg/mL"),
    ("CCCCCCN1CCN(C(=O)N[C@@H](C(=O)N[C@@H]2C(=O)N3[C@@H]2SC(C)(C)[C@@H]3C(=O)O)c2ccccc2)C(=O)C1 [compound 13]", "MIC", "< 1.57 µg/mL"),
]

----------
System: Shigella flexneri
assay.text: MIC against clinical isolates
Assay type: cell-based
condition.label: clinical isolate JS 11215; unit assumed
# MIC per entry
measured.endpoint: MIC (µg/mL)

# compound, measured.endpoint, test.result
records = [
    ("CCCCN1CCN(C(=O)N[C@@H](C(=O)N[C@@H]2C(=O)N3[C@@H]2SC(C)(C)[C@@H]3C(=O)O)c2ccccc2)C(=O)C1", "MIC", 25),
    ("CC(C)N1CCN(C(=O)N[C@@H](C(=O)N[C@@H]2C(=O)N3[C@@H]2SC(C)(C)[C@@H]3C(=O)O)c2ccccc2)C(=O)C1=O (single isomer, unassigned)", "MIC", 50),
    ("CCCN1CCN(C(=O)N[C@@H](C(=O)N[C@@H]2C(=O)N3[C@@H]2SC(C)(C)[C@@H]3C(=O)O)c2ccccc2)C(=O)C1=O (single isomer, unassigned)", "MIC", 25),
    ("CCCCN1CCN(C(=O)N[C@@H](C(=O)N[C@@H]2C(=O)N3[C@@H]2SC(C)(C)[C@@H]3C(=O)O)c2ccccc2)C(=O)C1=O (single isomer, unassigned)", "MIC", 25),
    ("CC(=O)N1CCN(C(=O)N[C@@H](C(=O)N[C@@H]2C(=O)N3[C@@H]2SC(C)(C)[C@@H]3C(=O)O)c2ccccc2)C(=O)C1", "MIC", 100),
    ("CCCCCCN1CCN(C(=O)N[C@@H](C(=O)N[C@@H]2C(=O)N3[C@@H]2SC(C)(C)[C@@H]3C(=O)O)c2ccccc2)C(=O)C1", "MIC", 12.5),
    ("CCCCCN1CCN(C(=O)N[C@@H](C(=O)N[C@@H]2C(=O)N3[C@@H]2SC(C)(C)[C@@H]3C(=O)O)c2ccccc2)C(=O)C1=O (single isomer, unassigned)", "MIC", 25),
]

Cited source: patent US4110327A
